B1: HDV Ribozyme (parent)
chain: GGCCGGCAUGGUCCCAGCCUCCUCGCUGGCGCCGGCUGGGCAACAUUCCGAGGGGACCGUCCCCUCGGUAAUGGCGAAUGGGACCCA

variants of: B1; test: self-cleavage, relative activity (ratio to wild type); higher = more cleavage; co-transcriptional
Decision: self-cleavage >= 0.3 yields criterion met, all other cases yield criterion not met.

G6A C19G    criterion not met
C22G G54C    criterion not met
U27G C36A    criterion not met
C86U A87G    criterion met
C14U U47C    criterion met
A16U G68C    criterion met
U9A G68U    criterion met
U23A G25C    criterion not met
C33G A83G    criterion not met
C7G A78G    criterion not met
C36A U37G    criterion not met
G17A C61G    criterion met
G28A G34U    criterion not met
C41G C66G    criterion met
C7A G31A    criterion met
C22A A78C    criterion not met
A8G C84U    criterion met
C32G C58A    criterion not met
G2C C26A    criterion met
C32U C62U    criterion met
U46A U79G    criterion met
G5C G28C    criterion not met
C48U C84G    criterion met
G39C A51C    criterion not met
C66G U69G    criterion met
G39C G55C    criterion met
G1C G52A    criterion not met
G54U A87C    criterion met
G40A C85U    criterion met
G52U G74C    criterion met
G2A G82C    criterion not met
C3U A43U    criterion met
C48G G76A    criterion met
G6C G52U    criterion not met
A42G G80A    criterion not met
C3U U79C    criterion met
G1C C26A    criterion not met
A16U A83C    criterion met
G10C U60G    criterion met
G1U C75U    criterion met
U60C G81C    criterion not met
G28U A70U    criterion not met
U37A G68A    criterion met
G31C A87G    criterion not met
A71U A83G    criterion met
A16C A71C    criterion met
G29C A70G    criterion not met
G6A C33G    criterion not met
U47C G52C    criterion met
C24A A56G    criterion met
A16C C61G    criterion met
U23A U79C    criterion met
G1C U37G    criterion not met
C14U G73C    criterion not met
U12C A77C    criterion not met
C63G C66G    criterion not met
G11A C86U    criterion met
G39U C66U    criterion met
U20G C21G    criterion not met
G5C G73C    criterion not met
G52U C58U    criterion met
G25U C84U    criterion not met
C58U A77U    criterion met
A43G A70C    criterion met
C24U A45C    criterion not met
A8C U47A    criterion met
C3G C14U    criterion met
